The molecules listed here are annotated with their log10 IC50.
Target or test system: Integrin alpha-IIb/beta-3 (Homo sapiens, UniProt P08514+P05106)
Sequence (P05106 27-788 limits assumed): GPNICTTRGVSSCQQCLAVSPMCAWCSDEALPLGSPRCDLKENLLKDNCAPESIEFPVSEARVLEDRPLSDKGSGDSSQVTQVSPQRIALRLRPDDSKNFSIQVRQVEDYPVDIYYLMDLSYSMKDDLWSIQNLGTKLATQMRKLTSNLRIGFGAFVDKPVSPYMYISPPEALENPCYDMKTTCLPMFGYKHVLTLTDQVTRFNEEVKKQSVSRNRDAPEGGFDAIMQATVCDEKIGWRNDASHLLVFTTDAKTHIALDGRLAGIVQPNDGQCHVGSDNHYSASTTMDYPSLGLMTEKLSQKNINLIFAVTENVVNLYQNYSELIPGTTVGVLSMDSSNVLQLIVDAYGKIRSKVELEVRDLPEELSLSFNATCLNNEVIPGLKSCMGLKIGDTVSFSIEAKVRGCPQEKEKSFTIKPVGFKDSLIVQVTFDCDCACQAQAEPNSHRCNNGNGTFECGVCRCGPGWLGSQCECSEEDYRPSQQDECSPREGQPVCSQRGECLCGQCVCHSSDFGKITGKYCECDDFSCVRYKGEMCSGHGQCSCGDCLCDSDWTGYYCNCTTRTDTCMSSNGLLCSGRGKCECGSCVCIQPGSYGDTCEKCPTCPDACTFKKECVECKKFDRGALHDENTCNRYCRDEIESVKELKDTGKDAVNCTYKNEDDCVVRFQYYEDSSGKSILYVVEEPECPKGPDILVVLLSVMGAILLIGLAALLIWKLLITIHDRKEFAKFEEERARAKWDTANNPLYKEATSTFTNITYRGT
Sequence (P08514 32-887 limits assumed): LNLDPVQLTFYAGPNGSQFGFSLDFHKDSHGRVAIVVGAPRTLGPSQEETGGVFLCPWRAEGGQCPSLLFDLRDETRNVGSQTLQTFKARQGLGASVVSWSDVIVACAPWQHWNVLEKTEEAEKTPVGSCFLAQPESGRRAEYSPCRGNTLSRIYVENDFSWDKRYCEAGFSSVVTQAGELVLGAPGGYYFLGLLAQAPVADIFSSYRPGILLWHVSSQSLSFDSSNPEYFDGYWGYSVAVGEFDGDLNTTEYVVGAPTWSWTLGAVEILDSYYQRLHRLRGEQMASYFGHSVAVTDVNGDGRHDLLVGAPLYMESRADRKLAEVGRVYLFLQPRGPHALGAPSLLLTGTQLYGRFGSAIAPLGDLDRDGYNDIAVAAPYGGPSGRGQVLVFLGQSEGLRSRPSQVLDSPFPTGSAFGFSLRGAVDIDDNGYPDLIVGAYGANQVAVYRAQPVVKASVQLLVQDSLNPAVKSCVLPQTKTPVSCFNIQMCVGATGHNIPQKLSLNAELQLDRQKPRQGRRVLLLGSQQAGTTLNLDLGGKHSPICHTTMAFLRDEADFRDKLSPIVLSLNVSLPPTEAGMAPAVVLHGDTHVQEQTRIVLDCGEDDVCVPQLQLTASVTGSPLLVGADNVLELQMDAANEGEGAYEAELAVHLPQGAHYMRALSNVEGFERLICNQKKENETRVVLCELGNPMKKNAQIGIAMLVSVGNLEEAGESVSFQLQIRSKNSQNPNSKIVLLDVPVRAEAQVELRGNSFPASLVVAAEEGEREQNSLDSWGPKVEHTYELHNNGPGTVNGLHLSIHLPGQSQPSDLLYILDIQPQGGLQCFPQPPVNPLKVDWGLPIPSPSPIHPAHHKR
Sequence (P08514 891-1039 limits assumed): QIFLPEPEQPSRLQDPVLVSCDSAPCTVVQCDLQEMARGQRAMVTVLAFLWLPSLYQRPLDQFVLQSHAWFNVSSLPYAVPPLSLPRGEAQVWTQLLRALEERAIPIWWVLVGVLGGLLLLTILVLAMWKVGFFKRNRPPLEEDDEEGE
Run description: ChEBML_90196
Endpoint: log10 IC50 (log10 of the value in µM)

> print(dat)
                                   molecule    endpoint  test.result
1  CCCCCC(=O)N[C@@H](Cc1ccc(OCCCCCCN)cc1)C(=O)O  log10 IC50         0.58
2  CC(C)(C)NCC(O)COc1ccc(C[C@H](NC(=O)OCc2ccccc2)C(=O)O)cc1 (some centres not stated)  log10 IC50         1.43
3  NCCCCCCOc1ccc(C[C@H](NS(=O)(=O)Cc2ccccc2)C(=O)O)cc1  log10 IC50         0.30
4  NCCCCCCCCOc1ccc(C[C@H](NC(=O)OCc2ccccc2)C(=O)O)cc1  log10 IC50         1.60
5  CC(C)(C)NCCCOc1ccc(C[C@H](NC(=O)OCc2ccccc2)C(=O)O)cc1  log10 IC50         1.34

meta.source: BindingDB's records for doi:10.1021/jm00102a020
